Quick list: pIC50 per entry.
Tested on: 857933-349-R-J2-PDC complex spheroid viability
Experimental details: Anticancer human tumor 857933-349-R-J2-PDC patient-derived colon adenocarcinoma cell line growth inhibition [POLQ]
Run conditions: curve of first compound; second compound 0.316 µM
pIC50: −log10 of the molar value.

Prompt: // Input: O=C(c1cc(Cc2n[nH]c(=O)c3ccccc23)ccc1F)N1CCN(C(=O)C2CC2)CC1 + Nc1ccc(C#CCN(C(=O)Cc2ncc(C(F)(F)F)cc2C(F)(F)F)c2ccc(F)cc2)nn1 . Output its pIC50 only.
Completion: < 5.00

Prompt: Let me know recorded pIC50 for C=CC(=O)N1CCN(c2nc(=O)n(-c3c(C)ccnc3C(C)C)c3nc(-c4c(O)cccc4F)c(F)cc23)C(C)C1 (centres undefined) + Cc1cccc(N(C)C(=O)C2C(O)CCN2c2nc(C)cc(C(F)(F)F)c2C#N)c1 , thanks.
Completion: < 5.00

Prompt: Return reported pIC50. Input compound: COc1ccc([C@@H](O)c2cc(-c3ncnc4cc(N5CCOCC5)ccc34)c(F)cc2Cl)nn1 + COC1C(OC(N)=O)C(O)C(Oc2ccc3c(O)c(NC(=O)c4ccc(O)c(CC=C(C)C)c4)c(=O)oc3c2C)OC1(C)C
Completion: < 5.00

Prompt: Tell me measured pIC50 for C=CCn1c(=O)c2cnc(Nc3ccc(N4CCN(C)CC4)cc3)nc2n1-c1cccc(C(C)(C)O)n1 + COC1C(OC(N)=O)C(O)C(Oc2ccc3c(O)c(NC(=O)c4ccc(O)c(CC=C(C)C)c4)c(=O)oc3c2C)OC1(C)C please.
Completion: < 6.00

* * *

System: 857933-349-R-J2-PDC complex spheroid viability
Experimental details: Anticancer human tumor 857933-349-R-J2-PDC cell line growth inhibition [POLQ];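 further: spheroids exposed to compounds for seven days before readout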
Run conditions: curve of first compound; second compound 0.0316 µM
Value type: IC50

| Molecule | Measured on | Value type | Observed result |
| --- | --- | --- | --- |
| C=CCn1c(=O)c2cnc(Nc3ccc(N4CCN(C)CC4)cc3)nc2n1-c1cccc(C(C)(C)O)n1 + COC1C(OC(N)=O)C(O)C(Oc2ccc3c(O)c(NC(=O)c4ccc(O)c(CC=C(C)C)c4)c(=O)oc3c2C)OC1(C)C | 857933-349-R-J2-PDC complex spheroid viability | IC50 | > 1 µM |
| CC(C)n1c(=O)n(C)c2cnc3cc(F)c(-c4ccc(OCCCN5CCCCC5)nc4)cc3c21 + Nc1ccc(C#CCN(C(=O)Cc2ncc(C(F)(F)F)cc2C(F)(F)F)c2ccc(F)cc2)nn1 | 857933-349-R-J2-PDC complex spheroid viability | IC50 | > 10 µM |
| COc1ccc([C@@H](O)c2cc(-c3ncnc4cc(N5CCOCC5)ccc34)c(F)cc2Cl)nn1 + Nc1ccc(C#CCN(C(=O)Cc2ncc(C(F)(F)F)cc2C(F)(F)F)c2ccc(F)cc2)nn1 | 857933-349-R-J2-PDC complex spheroid viability | IC50 | > 10 µM |
| CNCc1ccc(-c2[nH]c3cc(F)cc4c3c2CCNC4=O)cc1 + Cc1cccc(N(C)C(=O)C2C(O)CCN2c2nc(C)cc(C(F)(F)F)c2C#N)c1 | 857933-349-R-J2-PDC complex spheroid viability | IC50 | > 10 µM |

Now let's try a different one.
Prompt: Provide one value: measured IC50 of C=CC(=O)N1CCN(c2nc(=O)n(-c3c(C)ccnc3C(C)C)c3nc(-c4c(O)cccc4F)c(F)cc23)C(C)C1 (stereo not given) + COC1C(OC(N)=O)C(O)C(Oc2ccc3c(O)c(NC(=O)c4ccc(O)c(CC=C(C)C)c4)c(=O)oc3c2C)OC1(C)C
Completion: > 10 µM
